Where do the numbers come from? From patent US6727246B2.

testedTarget: human cloned 5-HT6 receptors (Homo sapiens, UniProt P50406)
Construct: expressed in transfected cells; host or cells: Hela cells (membrane preparation)
Sequence (P50406 whole entry): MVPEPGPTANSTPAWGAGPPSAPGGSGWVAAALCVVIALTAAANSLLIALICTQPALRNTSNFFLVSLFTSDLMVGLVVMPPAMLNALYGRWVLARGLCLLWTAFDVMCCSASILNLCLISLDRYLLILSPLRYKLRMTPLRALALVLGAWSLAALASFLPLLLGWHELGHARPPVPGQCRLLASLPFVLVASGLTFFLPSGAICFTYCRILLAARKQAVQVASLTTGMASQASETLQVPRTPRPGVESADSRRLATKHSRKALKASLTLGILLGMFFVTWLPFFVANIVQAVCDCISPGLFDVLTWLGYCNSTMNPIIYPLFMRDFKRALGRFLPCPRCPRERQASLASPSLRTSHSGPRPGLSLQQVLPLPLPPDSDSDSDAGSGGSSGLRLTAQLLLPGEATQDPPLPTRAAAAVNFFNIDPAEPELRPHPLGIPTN
procedureText: 5-HT6 binding affinity, [3H]-LSD displacement on membranes of Hela cells expressing the cloned receptor
conditionNotes: [3H]-LSD 3.0 nM, Hela cell membranes, 120 min at room temperature; read-out: 5-HT6 Binding Ki
valueType: Ki (nM)
Supply the numeric figure in nM, leaving out any unit text.

CN(C)CCCn1cc(S(=O)(=O)c2ccccc2)c2ccccc21: 169
CN(C)CCn1nc(S(=O)(=O)c2ccccc2)c2ccccc21: 74
Cc1cccc2c1c(S(=O)(=O)c1ccccc1)cn2CCN(C)C: 183
NCCn1cc(S(=O)(=O)c2ccccc2)c2ccc(Cl)cc21: 141

The value of Ki recorded for COc1ccc2c(c1)c(S(=O)(=O)c1ccccc1)cn2CCNCc1ccccc1 when tested on human cloned 5-HT6 receptors (Homo sapiens, UniProt P50406) reads 59

Observed Ki, human cloned 5-HT6 receptors (Homo sapiens, UniProt P50406), CN(C)CCn1cc(S(=O)(=O)c2ccccc2)c2c(Cl)cccc21 : 134

With human cloned 5-HT6 receptors (Homo sapiens, UniProt P50406) as the test system, CN(C)CCn1cc(S(=O)(=O)c2ccccc2)c2ccc(-c3ccccc3)cc21 showed Ki of 23

Field Ki (system: human cloned 5-HT6 receptors (Homo sapiens, UniProt P50406)) for entry CN(C)CCn1cc(S(=O)(=O)c2ccccc2)c2cccc(Cl)c21 = 98

Known value: human cloned 5-HT6 receptors (Homo sapiens, UniProt P50406) Ki of the compound CN(C)CCCCn1cc(S(=O)(=O)c2ccccc2)c2ccccc21 equals 160

Bench note, human cloned 5-HT6 receptors (Homo sapiens, UniProt P50406): CN(C)CCn1cc(S(=O)(=O)Cc2ccccc2)c2ccccc21 , Ki reads 1010

Considering NCCn1nc(S(=O)(=O)c2ccccc2)c2ccccc21 , its Ki with human cloned 5-HT6 receptors (Homo sapiens, UniProt P50406) was recorded as 44

Reported Ki (human cloned 5-HT6 receptors (Homo sapiens, UniProt P50406)) for entry CN(C)CCn1cc(S(=O)(=O)c2ccccc2)c2cccc(C#N)c21 is 755

The value of Ki recorded for NCCn1cc(S(=O)(=O)c2ccccc2)c2ccccc21 when tested on human cloned 5-HT6 receptors (Homo sapiens, UniProt P50406) reads 25

Value sought: Ki, system human cloned 5-HT6 receptors (Homo sapiens, UniProt P50406), item COc1cccc2c1c(S(=O)(=O)c1ccccc1)cn2CCN(C)C . Result: 152

Bench note, human cloned 5-HT6 receptors (Homo sapiens, UniProt P50406): entry CN(C)CCn1cc(S(=O)(=O)c2ccccc2)c2cc(C#N)ccc21 , its Ki = 45

Noted Ki for CN(C)CCn1nc(S(=O)(=O)c2cccc(F)c2)c2ccccc21 , tested on human cloned 5-HT6 receptors (Homo sapiens, UniProt P50406): 55

* * *

valueType: melting point

Illustrative cases are given below, each with its answer.
Cc1ccc(S(=O)(=O)c2cn(CCN(C)C)c3ccccc23)cc1: > 250 °C
Cc1ccc(S(=O)(=O)c2cn(CCN)c3ccccc23)cc1: 178 to 183 °C
CN(C)CCCn1cc(S(=O)(=O)c2ccccc2)c2ccccc21: 207 to 209 °C
Cc1ccc2c(S(=O)(=O)c3ccccc3)cn(CCN(C)C)c2c1: 131 to 132 °C
CN(C)CCn1cc(S(=O)(=O)c2cccc(F)c2)c2ccccc21: 210 to 211 °C
CN(C)CCCCn1cc(S(=O)(=O)c2ccccc2)c2ccccc21: 184 to 187 °C
CN(C)CCn1cc(S(=O)(=O)c2c(Cl)nc3sccn23)c2ccccc21: 138 to 140 °C
CN(C)CCn1nc(S(=O)(=O)c2cccc(F)c2)c2ccccc21: 192 to 194 °C

Here is the next item to consider.
Lookup result for CN(C)CCn1cc(S(=O)(=O)c2ccccc2)c2ccc(Cl)cc21 ; measured melting point: 104 to 106 °C
